B1: VH:VL chains; a variant is named by its letters at X, in order (parent)
chain 1: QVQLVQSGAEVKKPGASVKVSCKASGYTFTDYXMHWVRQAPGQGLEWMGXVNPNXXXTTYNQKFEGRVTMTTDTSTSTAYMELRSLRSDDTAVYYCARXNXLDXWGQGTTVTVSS
chain 2: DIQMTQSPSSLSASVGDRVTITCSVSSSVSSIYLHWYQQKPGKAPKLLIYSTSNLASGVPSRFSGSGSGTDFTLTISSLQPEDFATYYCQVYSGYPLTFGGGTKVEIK

variants of: B1; assay: yeast display scFab, FACS + sequencing
experimental_endpoint: non-specific binding call

Please review the entries below; each comes with its answer.
mutation_notation	non-specific binding call
YREKGSLD	binds
YKAGDDGA	no binding
VEGTSSSV	no binding
DKGEGAGV	no binding

non-specific binding call for FRGRGAGS is binds

get_value(item= FRERGDGA , readout=non-specific binding call) returns binds

For DKGGGFAV the variant record lists non-specific binding call as no binding

Recorded result, YTKRGDWD , non-specific binding call: binds

response.value for FTTGGSAV chain 1 M48I (field: non-specific binding call) = no binding

Notebook: YKGKGSVV , non-specific binding call read as binds

Per the record, YKGAGALD has non-specific binding call of binds

Reported non-specific binding call ( FRGRGSWS ) = binds

The measured non-specific binding call associated with VRGGGVGV reads binds

Value of measured non-specific binding call for the entry YKARGSAA : binds

What the record says about FKGKGALD : non-specific binding call is binds

Lab book: non-specific binding call of YRTRSSVS noted as binds

// non-specific binding call lookup, variant = SKRKSSGA , result: binds

The variant listed as DAGGADVY has a reported non-specific binding call of no binding

In plain terms, YRAGGALS has a documented non-specific binding call of binds

non-specific binding call reported for this variant YEKETVVA : binds

The variant listed as SEARSDWF shows non-specific binding call equal to no binding

Value of non-specific binding call reported for the variant YKRGSASD is binds
